experimental.system: IDH (endogenous IDH1 R132C) in HT1080 cell (Homo sapiens, UniProt O75874, R132C)
Construct: which harbor endogenous heterozygous IDH1 R132C and R132H mutation respectively and accumulate D-2-HG
Sequence (O75874 2-414 R132C): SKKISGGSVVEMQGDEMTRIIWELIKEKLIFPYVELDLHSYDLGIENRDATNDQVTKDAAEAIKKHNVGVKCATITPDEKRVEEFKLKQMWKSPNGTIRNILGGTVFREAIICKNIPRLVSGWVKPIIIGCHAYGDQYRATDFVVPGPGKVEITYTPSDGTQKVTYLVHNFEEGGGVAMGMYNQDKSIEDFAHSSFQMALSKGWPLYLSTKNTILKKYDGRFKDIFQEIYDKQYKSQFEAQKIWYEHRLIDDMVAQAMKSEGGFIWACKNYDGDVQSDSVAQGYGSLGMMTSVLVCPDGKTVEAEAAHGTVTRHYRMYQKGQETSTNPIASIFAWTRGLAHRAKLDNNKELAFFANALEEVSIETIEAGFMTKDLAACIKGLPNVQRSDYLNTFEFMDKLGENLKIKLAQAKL
assay.protocol: Cell-based assay for IDH inhibition (decrease of D-2-HG) in HT1080 cells
condition.summary: human fibrosarcoma cell line HT1080, 16 hours treatment, D-2-HG by LC-MS, in triplet
property.name: IC50

Could you report IC50 for every entry in the following list?
1. CCN1Cc2c(ccnc2N[C@@H](C)c2cc(F)c(-c3cc(C(C)(C)F)c(C)cn3)cc2F)C1=O
2. CCN1Cc2c(ccnc2N[C@@H](C)c2ccc(-n3ccc(C)n3)c(F)c2)C1=O

Completion:
< 100 nM
> 1000 nM

Could you report IC50 for every entry in the following list?
1. CCN1Cc2c(ccnc2N[C@@H](C)c2ccc(-c3ccnc(C(C)(C)C(N)=O)c3)c(F)c2)C1=O
2. CCN1Cc2c(ccnc2N[C@@H](C)c2cc(F)c(-c3ccnc(C(C)(C)C(F)(F)F)c3)cc2F)C1=O

Completion:
["500 to 1000 nM", "< 100 nM"]

----------
experimental.system: IDH (endogenous IDH1 R132C) in HT1080 cell (Homo sapiens, UniProt O75874, R132C)
Construct: which harbor endogenous heterozygous IDH1 R132C and R132H mutation respectively and accumulate D-2-HG
assay.protocol: Cell-based assay for IDH inhibition (decrease of D-2-HG) in HT1080 cells
condition.summary: human fibrosarcoma cell line HT1080, 16 hours treatment, D-2-HG by LC-MS, in triplet
Exercise: for every item that follows, state its recorded IC50.

CCN1Cc2c(ccnc2N[C@@H](C)c2ccc(-c3ccn(C)n3)c(F)c2)C1=O [Compound 83] : > 1000 nM
CCN1Cc2c(ccnc2N[C@@H](C)c2ccc(Oc3ccnc(C(C)(C)C)c3)c(F)c2)C1=O [Compound 25] : 500 to 1000 nM
CCN1Cc2c(ccnc2N[C@@H](C)c2ccc(Oc3ccc4c(cnn4C)c3)c(F)c2)C1=O [Compound 1] : 500 to 1000 nM
CCN1Cc2c(ccnc2N[C@@H](C)c2ccc(OC3CCCC3)c(F)c2)C1=O [Compound 15] : > 1000 nM
CCN1Cc2c(ccnc2N[C@@H](C)c2ccc(Oc3ccnc(C(F)(F)F)c3)c(F)c2)C1=O [Compound 26] : > 1000 nM
CCN1Cc2c(ccnc2N[C@@H](C)c2ncc(Cc3ccc(F)c(C)c3)cn2)C1=O [Compound 54] : > 1000 nM
CCN1Cc2c(ccnc2N[C@@H](C)c2ccc(Oc3ccc4c(ccn4C)c3)c(F)c2)C1=O [Compound 3] : 500 to 1000 nM
CCN1Cc2c(ccnc2N[C@@H](C)c2cc(C)c(-c3ccnc(C(F)(F)F)c3)cn2)C1=O [Compound 45] : > 1000 nM
CCN1Cc2c(ccnc2N[C@@H](C)c2ccc(CN3CCC(F)(F)CC3)c(F)c2)C1=O [Compound 55] : > 1000 nM

Proceeding to the next molecule to report its IC50.
Prompt: Fill blank: measured IC50 of the molecule CCN1Cc2c(ccnc2N[C@@H](C)c2cc(F)c(-c3nc(C)cc(C(C)(C)F)c3F)cc2F)C1=O [Compound 134] is ____.
Completion: < 100 nM

----------
experimental.system: IDH1 R132C (Homo sapiens, UniProt O75874, R132C)
Construct: 6xHis
Sequence (O75874 whole entry R132C): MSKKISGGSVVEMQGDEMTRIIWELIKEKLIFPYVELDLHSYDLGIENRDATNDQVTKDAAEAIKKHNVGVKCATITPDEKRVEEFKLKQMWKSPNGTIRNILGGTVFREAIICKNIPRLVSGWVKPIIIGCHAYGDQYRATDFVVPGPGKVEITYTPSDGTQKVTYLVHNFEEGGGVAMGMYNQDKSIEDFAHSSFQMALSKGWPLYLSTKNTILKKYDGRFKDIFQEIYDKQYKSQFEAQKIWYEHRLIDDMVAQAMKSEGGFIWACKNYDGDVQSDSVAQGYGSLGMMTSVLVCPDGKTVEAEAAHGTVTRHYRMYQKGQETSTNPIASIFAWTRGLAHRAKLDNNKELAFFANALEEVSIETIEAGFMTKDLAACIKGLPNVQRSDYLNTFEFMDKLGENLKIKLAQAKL
assay.protocol: Biochemical assay for IDH inhibition (NADPH fluorescence), mutant IDH1 R132C
condition.summary: 25 nM IDH1-R132C, 1 hour pre-incubation, in triplet
property.name: IC50

Past entries and their recorded results:
CCN1Cc2c(ccnc2N[C@@H](C)c2ccc(Oc3ccc4c(c3)cc(C)n4C)c(F)c2)C1=O : 100 to 500 nM
CCN1Cc2c(ccnc2N[C@@H](C)c2ccc(-c3ccnc(C(F)(F)F)c3)c(F)c2)C1=O : > 1000 nM
CCN1Cc2c(ccnc2N[C@@H](C)c2cc(F)c(-c3cc(C(F)(F)F)ccn3)cc2F)C1=O : 100 to 500 nM

Could you report IC50 for every entry in the following list?
1. CCN1Cc2c(ccnc2N[C@@H](C)c2cc(F)c(-c3cc(C(C)(C)F)ncc3OC)cc2F)C1=O
2. CCN1Cc2c(ccnc2N[C@@H](C)c2cc3cc(Cl)ccc3[nH]c2=O)C1=O
3. CCN1Cc2c(ccnc2N[C@@H](C)c2cc(F)c(-c3cc(C(C)(C)F)cc(F)n3)cc2F)C1=O

Completion:
1: < 100 nM; 2: > 1000 nM; 3: < 100 nM

Just for reference, patent US12441725B2 is where these values come from.
